Each recorded value in this set is attributed to PubChem BioAssay AID1963977.

# Test system: 624824-186-R-J3-PDC multicell spheroids, viability
# Assay details: Anticancer human tumor 624824-186-R-J3-PDC patient-derived colon adenocarcinoma cell line growth inhibition [PI3K]
# Condition details: curve of first compound; second compound 1 µM
Endpoint name: IC50 (nM)
Give bare numbers, in nM.

Please review the entries below; each comes with its answer.
CC(C)NCC(C(=O)N1CCN(c2ncnc3c2C(C)CC3O)CC1)c1ccc(Cl)cc1 (stereo unspecified) + CC(Nc1ccc2c(c1)OCCn1cc(N3C(=O)OCC3C(F)F)nc1-2)C(N)=O: 3440
Cn1cnc2c(F)c(Nc3ccc(Br)cc3Cl)c(C(=O)NOCCO)cc21 + CC(Nc1ncnc2nc[nH]c12)c1cc2cccc(Cl)c2c(=O)n1-c1ccccc1: 1280

Input line: Any idea what IC50 came out for CCCS(=O)(=O)Nc1ccc(F)c(C(=O)c2c[nH]c3ncc(-c4ccc(Cl)cc4)cc23)c1F + CC(Nc1ccc2c(c1)OCCn1cc(N3C(=O)OCC3C(F)F)nc1-2)C(N)=O on 624824-186-R-J3-PDC multicell spheroids, viability?
Output line: 353

###

# System: 624824-186-R-J3-PDC multicell spheroids, viability
# Assay details: Anticancer human tumor 624824-186-R-J3-PDC cell line growth inhibition [PI3K];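 note: spheroids exposed to agents for seven days before luminescence read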
# Condition details: second compound 3.16 µM; first compound 1 µM; stronger effect = lower value
Would you kindly list viability, T/C for each of these compounds?
Answers are plain numbers, in %.

Below are 3 compounds. Give each one its viability, T/C.
1. C[C@@H](NC(=O)c1ncnc(N)c1Cl)c1ncc(C(=O)Nc2cc(C(F)(F)F)c(Cl)cn2)s1 + Cc1nc(NC(=O)N2CCCC2C(N)=O)sc1-c1ccnc(C(C)(C)C(F)(F)F)c1
2. C#Cc1c(F)ccc2cc(O)cc(-c3ncc4c(N5CC6CCC(C5)N6)nc(OCC56CCCN5CC(F)C6)nc4c3F)c12 (stereo unspecified) + Cc1nc(NC(=O)N2CCCC2C(N)=O)sc1-c1ccnc(C(C)(C)C(F)(F)F)c1
3. CCCS(=O)(=O)Nc1ccc(F)c(C(=O)c2c[nH]c3ncc(-c4ccc(Cl)cc4)cc23)c1F + CC(Nc1ncnc2nc[nH]c12)c1cc2cccc(Cl)c2c(=O)n1-c1ccccc1

Output line:
1. 75.8
2. 85.2
3. 81

Below are 7 compounds. Give each one its viability, T/C.
1. CC1(C)CCC(Nc2ncc(C(F)(F)F)c(-c3c[nH]c4c(P(C)(C)=O)c(C#N)ccc34)n2)CN1 (stereo unspecified) + CC(Nc1ncnc2nc[nH]c12)c1cc2cccc(Cl)c2c(=O)n1-c1ccccc1
2. Cn1ncc(Cl)c1-c1cc(C(=O)NC(CN)Cc2cccc(F)c2)sc1Cl (stereo unspecified) + Cc1nc(NC(=O)N2CCCC2C(N)=O)sc1-c1ccnc(C(C)(C)C(F)(F)F)c1
3. C=CC(=O)N1CCN(c2nc(=O)n(-c3c(C)ccnc3C(C)C)c3nc(-c4c(O)cccc4F)c(F)cc23)C(C)C1 (stereo unspecified) + CC(Nc1ncnc2nc[nH]c12)c1cc2cccc(Cl)c2c(=O)n1-c1ccccc1
4. CNC(=O)c1ccc(N2C(=S)N(c3ccc(C#N)c(C(F)(F)F)c3)C(=O)C2(C)C)cc1F + CC(Nc1ncnc2nc[nH]c12)c1cc2cccc(Cl)c2c(=O)n1-c1ccccc1
5. CC(Cn1ccc(-c2ccc(C#N)c(Cl)c2)n1)NC(=O)c1cc(C(C)O)[nH]n1 (stereo unspecified) + CC(Nc1ncnc2nc[nH]c12)c1cc2cccc(Cl)c2c(=O)n1-c1ccccc1
6. Cn1nccc1Nc1nccc(-c2ccn(C(CO)c3ccc(Cl)c(F)c3)c(=O)c2)n1 (stereo unspecified) + CC(Nc1ncnc2nc[nH]c12)c1cc2cccc(Cl)c2c(=O)n1-c1ccccc1
7. C[C@@H](NC(=O)c1ncnc(N)c1Cl)c1ncc(C(=O)Nc2cc(C(F)(F)F)c(Cl)cn2)s1 + CC(Nc1ncnc2nc[nH]c12)c1cc2cccc(Cl)c2c(=O)n1-c1ccccc1

Output line:
1: 80.9; 2: 56.7; 3: 106; 4: 91.5; 5: 97.1; 6: 63; 7: 94.3

Input line: Need viability, T/C, item CCN1CCN(Cc2ccc(Nc3ncc(F)c(-c4cc(F)c5nc(C)n(C(C)C)c5c4)n3)nc2)CC1 + CC(Nc1ncnc2nc[nH]c12)c1cc2cccc(Cl)c2c(=O)n1-c1ccccc1
Output line: 81.8

###

# Test system: 624824-186-R-J3-PDC multicell spheroids, viability
# Assay details: Anticancer human tumor 624824-186-R-J3-PDC cell line growth inhibition [PI3K];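 note: spheroids exposed to agents for seven days before luminescence read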;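 for viability, T/C: luminescent signal used as a stand-in for spheroid viability; percent viability relative to DMSO vehicle control wells taken as 100%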
# Condition details: second compound 0.316 µM; first compound 0.316 µM; stronger effect = lower value
Endpoint name: viability, T/C

Please review the entries below; each comes with its answer.
CC1(C)CCC(CN2CCN(c3ccc(C(=O)NS(=O)(=O)c4ccc(NCC5CCOCC5)c([N+](=O)[O-])c4)c(Oc4cnc5[nH]ccc5c4)c3)CC2)=C(c2ccc(Cl)cc2)C1 + COc1c(OCCCN2CCOCC2)ccc2c3n(c(=NC(=O)c4cnc(N)nc4)nc12)CCN3: 50.7%
CC(C)NCC(C(=O)N1CCN(c2ncnc3c2C(C)CC3O)CC1)c1ccc(Cl)cc1 (centres undefined) + CC(Nc1ccc2c(c1)OCCn1cc(N3C(=O)OCC3C(F)F)nc1-2)C(N)=O: 94.4%
CC(Cn1ccc(-c2ccc(C#N)c(Cl)c2)n1)NC(=O)c1cc(C(C)O)[nH]n1 (centres undefined) + CC(Nc1ncnc2nc[nH]c12)c1cc2cccc(Cl)c2c(=O)n1-c1ccccc1: 103%

Turning now to a further record.
Input line: Need viability, T/C, item CC1(C)CCC(Nc2ncc(C(F)(F)F)c(-c3c[nH]c4c(P(C)(C)=O)c(C#N)ccc34)n2)CN1 (centres undefined) + COc1c(OCCCN2CCOCC2)ccc2c3n(c(=NC(=O)c4cnc(N)nc4)nc12)CCN3
Output line: 28.9%

###

# Test system: 624824-186-R-J3-PDC multicell spheroids, viability
# Assay details: Anticancer human tumor 624824-186-R-J3-PDC cell line growth inhibition [PI3K];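 note: spheroids exposed to agents for seven days before luminescence read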;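 for viability, T/C: luminescent signal used as a stand-in for spheroid viability; percent viability relative to DMSO vehicle control wells taken as 100%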
# Condition details: second compound 10 µM; first compound 3.16 µM; stronger effect = lower value
Endpoint name: viability, T/C (%)
One number for each entry, in %.

Please review the entries below; each comes with its answer.
Cn1ncc(Cl)c1-c1cc(C(=O)NC(CN)Cc2cccc(F)c2)sc1Cl (centres undefined) + CC(Nc1ncnc2nc[nH]c12)c1cc2cccc(Cl)c2c(=O)n1-c1ccccc1: 45.7
Cn1nccc1Nc1nccc(-c2ccn(C(CO)c3ccc(Cl)c(F)c3)c(=O)c2)n1 (centres undefined) + CC(Nc1ncnc2nc[nH]c12)c1cc2cccc(Cl)c2c(=O)n1-c1ccccc1: 35.5
CCCS(=O)(=O)Nc1ccc(F)c(C(=O)c2c[nH]c3ncc(-c4ccc(Cl)cc4)cc23)c1F + Cc1nc(NC(=O)N2CCCC2C(N)=O)sc1-c1ccnc(C(C)(C)C(F)(F)F)c1: 26.6

Turning now to a further record.
Input line: Need viability, T/C, item Cn1ncc(Cl)c1-c1cc(C(=O)NC(CN)Cc2cccc(F)c2)sc1Cl (centres undefined) + Cc1nc(NC(=O)N2CCCC2C(N)=O)sc1-c1ccnc(C(C)(C)C(F)(F)F)c1
Output line: 37.6

###

# System: 624824-186-R-J3-PDC multicell spheroids, viability
# Assay details: Anticancer human tumor 624824-186-R-J3-PDC cell line growth inhibition [PI3K];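 note: spheroids exposed to agents for seven days before luminescence read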;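 for viability, T/C: luminescent signal used as a stand-in for spheroid viability; percent viability relative to DMSO vehicle control wells taken as 100%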
# Condition details: second compound 1 µM; first compound 0.1 µM; stronger effect = lower value
Would you kindly list viability, T/C for each of these molecules?
One number for each entry, in %.

CC1(C)CCC(CN2CCN(c3ccc(C(=O)NS(=O)(=O)c4ccc(NCC5CCOCC5)c([N+](=O)[O-])c4)c(Oc4cnc5[nH]ccc5c4)c3)CC2)=C(c2ccc(Cl)cc2)C1 + COc1c(OCCCN2CCOCC2)ccc2c3n(c(=NC(=O)c4cnc(N)nc4)nc12)CCN3: 33.7
Cn1ncnc1[C@H]1c2n[nH]c(=O)c3cc(F)cc(c23)N[C@@H]1c1ccc(F)cc1 + CC(Nc1ncnc2nc[nH]c12)c1cc2cccc(Cl)c2c(=O)n1-c1ccccc1: 111
CNC(=O)c1ccc(N2C(=S)N(c3ccc(C#N)c(C(F)(F)F)c3)C(=O)C2(C)C)cc1F + CC(Nc1ncnc2nc[nH]c12)c1cc2cccc(Cl)c2c(=O)n1-c1ccccc1: 101
CCN1CCN(Cc2ccc(Nc3ncc(F)c(-c4cc(F)c5nc(C)n(C(C)C)c5c4)n3)nc2)CC1 + CC(Nc1ncnc2nc[nH]c12)c1cc2cccc(Cl)c2c(=O)n1-c1ccccc1: 94.3

Turning now to a further record.
Input line: Need viability, T/C, item CCCS(=O)(=O)Nc1ccc(F)c(C(=O)c2c[nH]c3ncc(-c4ccc(Cl)cc4)cc23)c1F + Cc1nc(NC(=O)N2CCCC2C(N)=O)sc1-c1ccnc(C(C)(C)C(F)(F)F)c1
Output line: 89.8

###

# System: 624824-186-R-J3-PDC multicell spheroids, viability
# Assay details: Anticancer human tumor 624824-186-R-J3-PDC cell line growth inhibition [PI3K];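 note: spheroids exposed to agents for seven days before luminescence read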;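 for viability, T/C: luminescent signal used as a stand-in for spheroid viability; percent viability relative to DMSO vehicle control wells taken as 100%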
# Condition details: second compound 1 µM; first compound 0.1 µM; stronger effect = lower value
Would you kindly list viability, T/C for each of these compounds?
Give bare numbers, in %.

Please review the entries below; each comes with its answer.
C#Cc1c(F)ccc2cc(O)cc(-c3ncc4c(N5CC6CCC(C5)N6)nc(OCC56CCCN5CC(F)C6)nc4c3F)c12 (stereo unspecified) + CC(Nc1ccc2c(c1)OCCn1cc(N3C(=O)OCC3C(F)F)nc1-2)C(N)=O: 83.2
CCCS(=O)(=O)Nc1ccc(F)c(C(=O)c2c[nH]c3ncc(-c4ccc(Cl)cc4)cc23)c1F + CC(Nc1ncnc2nc[nH]c12)c1cc2cccc(Cl)c2c(=O)n1-c1ccccc1: 103
CCCS(=O)(=O)Nc1ccc(F)c(C(=O)c2c[nH]c3ncc(-c4ccc(Cl)cc4)cc23)c1F + CC(Nc1ccc2c(c1)OCCn1cc(N3C(=O)OCC3C(F)F)nc1-2)C(N)=O: 69.5
CCCS(=O)(=O)Nc1ccc(F)c(C(=O)c2c[nH]c3ncc(-c4ccc(Cl)cc4)cc23)c1F + COc1c(OCCCN2CCOCC2)ccc2c3n(c(=NC(=O)c4cnc(N)nc4)nc12)CCN3: 27.1
CC(C)n1nc(-c2ccc3oc(N)nc3c2)c2c(N)ncnc21 + Cc1nc(NC(=O)N2CCCC2C(N)=O)sc1-c1ccnc(C(C)(C)C(F)(F)F)c1: 34
C=CC(=O)N1CCN(c2nc(=O)n(-c3c(C)ccnc3C(C)C)c3nc(-c4c(O)cccc4F)c(F)cc23)C(C)C1 (stereo unspecified) + Cc1nc(NC(=O)N2CCCC2C(N)=O)sc1-c1ccnc(C(C)(C)C(F)(F)F)c1: 108

Below are 5 compounds. Give each one its viability, T/C.
1. CNC(=O)c1ccc(N2C(=S)N(c3ccc(C#N)c(C(F)(F)F)c3)C(=O)C2(C)C)cc1F + COc1c(OCCCN2CCOCC2)ccc2c3n(c(=NC(=O)c4cnc(N)nc4)nc12)CCN3
2. C=CC(=O)N1CCN(c2nc(=O)n(-c3c(C)ccnc3C(C)C)c3nc(-c4c(O)cccc4F)c(F)cc23)C(C)C1 (stereo unspecified) + COc1c(OCCCN2CCOCC2)ccc2c3n(c(=NC(=O)c4cnc(N)nc4)nc12)CCN3
3. C#Cc1c(F)ccc2cc(O)cc(-c3ncc4c(N5CC6CCC(C5)N6)nc(OCC56CCCN5CC(F)C6)nc4c3F)c12 (stereo unspecified) + COc1c(OCCCN2CCOCC2)ccc2c3n(c(=NC(=O)c4cnc(N)nc4)nc12)CCN3
4. Cn1ncc(Cl)c1-c1cc(C(=O)NC(CN)Cc2cccc(F)c2)sc1Cl (stereo unspecified) + COc1c(OCCCN2CCOCC2)ccc2c3n(c(=NC(=O)c4cnc(N)nc4)nc12)CCN3
5. Cn1ncnc1[C@H]1c2n[nH]c(=O)c3cc(F)cc(c23)N[C@@H]1c1ccc(F)cc1 + COc1c(OCCCN2CCOCC2)ccc2c3n(c(=NC(=O)c4cnc(N)nc4)nc12)CCN3

Output line:
1: 31; 2: 30.5; 3: 27.7; 4: 26.8; 5: 27
